Molecular target: T1, Anti-CD28 Fab (SEQ ID NOs: 696, 697)
T1 construct: In the phage ELISA the Fab was biotinylated and captured on neutravidin coated plates
T1 sequence (VH, as listed by the source, chain 1 of 2): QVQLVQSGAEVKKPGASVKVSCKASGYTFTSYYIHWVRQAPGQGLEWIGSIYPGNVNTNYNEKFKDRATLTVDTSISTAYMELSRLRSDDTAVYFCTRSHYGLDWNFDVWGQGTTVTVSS
T1 sequence (VL, as listed by the source, chain 2 of 2): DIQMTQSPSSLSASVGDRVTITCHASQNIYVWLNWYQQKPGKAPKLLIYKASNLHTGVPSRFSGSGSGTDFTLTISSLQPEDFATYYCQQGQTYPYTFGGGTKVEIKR
Assay: phage binding ELISA with the Fab-coated wells pre-incubated with CD28 antigen (competitor: CD28), anti-M13 HRP detection
attribute-measured: Anti-CD28 Fab signal in the presence of CD28 (phage binding ELISA)

>>> value_observed("YCDGHSWIYMVKCL [Phage-1166]")
0.06
>>> value_observed("YCEGHSQQYMWKCL [Phage-1160]")
0.05
>>> value_observed("YCEGHRAEYMSKCL [Phage-1165]")
0.09
>>> value_observed("YCEGHSQTYMWKCL [Phage-1158]")
0.08
>>> value_observed("YCEGHLKEYMQKCL [Phage-1163]")
0.07
>>> value_observed("YCEGHLPQYMSKCL [Phage-1168]")
0.09
>>> value_observed("YCDGHLPDYMAKCL [Phage-1161]")
0.07
>>> value_observed("YCEGHSYQYMQKCL [Phage-1164]")
0.06
>>> value_observed("YCEGHAEQYMEKCL [Phage-1162]")
0.08
>>> value_observed("YCAGHSSEYIGKCL [Phage-1159]")
0.06
>>> value_observed("YCEGHMPEYLAKCL [Phage-1156]")
0.07
>>> value_observed("YCEGHAGVYMAKCL [Phage-1157]")
0.05
>>> value_observed("YCDGHLSVYMSKCL [Phage-1167]")
0.07
